- System: NCI/ADR-RES
- PROTOCOL TEXT: NCI tumour cell line growth inhibition, 48 h
Calls of active or inactive are those of the source. No stated cut-off is given here; in the data, active = GI50 up to about 1.1 µM and inactive = higher.
Possible outcomes: active, inactive

{"MOLECULE": "Cn1cc(NC(=O)Nc2cc(C(=O)Nc3cc(C(=O)Nc4cc(S(=O)(=O)O)c5cc(S(=O)(=O)O)cc(S(=O)(=O)O)c5c4)n(C)c3)n(C)c2)cc1C(=O)Nc1cc(C(=O)Nc2cc(S(=O)(=O)O)c3cc(S(=O)(=O)O)cc(S(=O)(=O)O)c3c2)n(C)c1", "TEST TARGET": "NCI/ADR-RES", "CLASS": "inactive"}
{"MOLECULE": "FC(F)(F)c1ccc2nc(Sc3ccc4ccccc4c3)cnc2c1", "TEST TARGET": "NCI/ADR-RES", "CLASS": "inactive"}
{"MOLECULE": "C/C(=N\\N)C(CN(C)C)C(c1ccccc1)c1c(O)c2ccccc2oc1=O (centres undefined)", "TEST TARGET": "NCI/ADR-RES", "CLASS": "inactive"}
{"MOLECULE": "Cc1cc2nc(O)c(C(C)C(=O)c3ccc(Cl)cc3)nc2cc1C (centres undefined)", "TEST TARGET": "NCI/ADR-RES", "CLASS": "inactive"}
{"MOLECULE": "Cc1cc(C)n(CC(Cn2nc(C)cc2C)=C(/C(Cl)=C(/Cl)Nc2ccc([N+](=O)[O-])cc2)[N+](=O)[O-])n1", "TEST TARGET": "NCI/ADR-RES", "CLASS": "inactive"}
{"MOLECULE": "S=c1[nH]c2ccc(Br)cc2c(=S)s1", "TEST TARGET": "NCI/ADR-RES", "CLASS": "inactive"}
{"MOLECULE": "C#CCN1CCN(C(=S)N/N=C(\\C)c2ccccn2)CC1", "TEST TARGET": "NCI/ADR-RES", "CLASS": "active"}
{"MOLECULE": "O=C(O)CNc1ccc2c(c1)Cc1cc(Br)ccc1-2", "TEST TARGET": "NCI/ADR-RES", "CLASS": "inactive"}
{"MOLECULE": "CN(C)c1n/c(=N/Cc2ccccc2)ss1", "TEST TARGET": "NCI/ADR-RES", "CLASS": "inactive"}
